Entry source: ChEMBL document CHEMBL5338815

Assay system: Histone-lysine N-methyltransferase EHMT1 (Homo sapiens, UniProt Q9H9B1)
Sequence (Q9H9B1 whole entry): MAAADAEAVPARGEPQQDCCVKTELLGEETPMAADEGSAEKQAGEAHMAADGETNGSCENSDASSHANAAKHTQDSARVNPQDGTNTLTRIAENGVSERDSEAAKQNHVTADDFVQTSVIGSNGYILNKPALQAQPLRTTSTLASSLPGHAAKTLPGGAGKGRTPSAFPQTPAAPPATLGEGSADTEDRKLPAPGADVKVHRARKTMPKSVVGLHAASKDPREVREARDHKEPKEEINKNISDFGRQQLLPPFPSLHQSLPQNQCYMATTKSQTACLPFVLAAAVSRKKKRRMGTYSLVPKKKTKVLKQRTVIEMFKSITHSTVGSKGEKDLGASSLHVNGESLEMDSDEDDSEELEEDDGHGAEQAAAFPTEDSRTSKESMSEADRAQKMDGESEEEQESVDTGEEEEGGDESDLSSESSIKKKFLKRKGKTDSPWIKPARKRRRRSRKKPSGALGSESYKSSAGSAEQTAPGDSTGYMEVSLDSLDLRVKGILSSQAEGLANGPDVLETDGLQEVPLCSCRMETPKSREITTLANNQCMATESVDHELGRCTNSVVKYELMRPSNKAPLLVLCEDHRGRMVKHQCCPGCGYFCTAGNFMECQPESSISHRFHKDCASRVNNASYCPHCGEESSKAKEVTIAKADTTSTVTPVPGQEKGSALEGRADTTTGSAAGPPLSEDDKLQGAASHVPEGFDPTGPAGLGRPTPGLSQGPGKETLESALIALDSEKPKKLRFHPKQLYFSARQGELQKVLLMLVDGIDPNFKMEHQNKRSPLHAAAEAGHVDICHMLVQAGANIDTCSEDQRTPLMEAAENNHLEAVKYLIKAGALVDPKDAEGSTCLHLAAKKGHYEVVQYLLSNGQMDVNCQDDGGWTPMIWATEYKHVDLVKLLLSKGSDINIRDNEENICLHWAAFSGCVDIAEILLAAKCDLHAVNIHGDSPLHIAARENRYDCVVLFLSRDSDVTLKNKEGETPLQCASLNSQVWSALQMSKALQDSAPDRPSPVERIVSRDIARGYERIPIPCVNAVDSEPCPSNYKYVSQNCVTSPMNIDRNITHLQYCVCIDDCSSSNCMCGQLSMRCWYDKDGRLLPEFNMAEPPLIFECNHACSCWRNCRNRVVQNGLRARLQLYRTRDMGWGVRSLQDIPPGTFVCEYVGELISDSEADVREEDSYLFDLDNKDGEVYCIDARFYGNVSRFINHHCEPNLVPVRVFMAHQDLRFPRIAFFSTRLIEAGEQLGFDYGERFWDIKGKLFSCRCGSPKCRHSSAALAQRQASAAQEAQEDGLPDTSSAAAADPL
Protocol text: Inhibition of GLP (unknown origin)
Measured attribute: IC50

Task: Provide IC50, system Histone-lysine N-methyltransferase EHMT1 (Homo sapiens, UniProt Q9H9B1), entry CNc1nc2cc(OCCCN3CCCC3)c(OC)cc2n1C(C)C
Output: < 100 nM

* * *

Tested on: PANC-1
Protocol text: Antiproliferative activity against human PANC-1 cells assessed as cell viability measured after 24 hrs by CCK-8 assay
Format: functional, cell-based
Test context: PANC-1, 24 h
pIC50: −log10 of the molar value.
Quick rule: pIC50 of at least 5 means class 1, below that means class 0.

Task: Tell me whether pIC50 is at least 5 here: C=CC(=O)N(C)c1nc(NC2CCN(C)CC2)c2cc(OC)c(OCCCN3CCCC3)cc2n1
Output: class 1

Task: Tell me whether pIC50 is at least 5 here: C=CC(=O)N(C)c1nc(NC2CCN(CCC)CC2)c2cc(OC)c(OCCCN3CCCC3)cc2n1
Output: class 1

Task: Tell me whether pIC50 is at least 5 here: CCC(=O)N(C)c1nc(NC2CCN(C)CC2)c2cc(OC)c(OCCCN3CCCC3)cc2n1
Output: class 0

Task: Tell me whether pIC50 is at least 5 here: C=CC(=O)N(C)c1nc(NCC2CCN(C)CC2)c2cc(OC)c(OCCCN3CCCC3)cc2n1
Output: class 0

Task: Tell me whether pIC50 is at least 5 here: C=CC(=O)N(C)c1nc(NC2CCN(C3CCCCC3)CC2)c2cc(OC)c(OCCCN3CCCC3)cc2n1
Output: class 1

Task: Tell me whether pIC50 is at least 5 here: C=CC(=O)N(C)c1nc(NC2CCN(Cc3ccccc3)CC2)c2cc(OC)c(OCCCN3CCCC3)cc2n1
Output: class 1

* * *

Assay system: Histone-lysine N-methyltransferase 2A (Homo sapiens, UniProt Q03164)
Measured attribute: IC50

Task: Identify the reported IC50 for the following entry. C=CC(=O)N(C)c1nc(NC2CCN(C)CC2)c2cc(OC)c(OCCCN3CCCC3)cc2n1
Output: > 20 µM

* * *

Assay system: Histone-lysine N-methyltransferase EHMT2 (Homo sapiens, UniProt Q96KQ7)
Sequence (Q96KQ7 whole entry): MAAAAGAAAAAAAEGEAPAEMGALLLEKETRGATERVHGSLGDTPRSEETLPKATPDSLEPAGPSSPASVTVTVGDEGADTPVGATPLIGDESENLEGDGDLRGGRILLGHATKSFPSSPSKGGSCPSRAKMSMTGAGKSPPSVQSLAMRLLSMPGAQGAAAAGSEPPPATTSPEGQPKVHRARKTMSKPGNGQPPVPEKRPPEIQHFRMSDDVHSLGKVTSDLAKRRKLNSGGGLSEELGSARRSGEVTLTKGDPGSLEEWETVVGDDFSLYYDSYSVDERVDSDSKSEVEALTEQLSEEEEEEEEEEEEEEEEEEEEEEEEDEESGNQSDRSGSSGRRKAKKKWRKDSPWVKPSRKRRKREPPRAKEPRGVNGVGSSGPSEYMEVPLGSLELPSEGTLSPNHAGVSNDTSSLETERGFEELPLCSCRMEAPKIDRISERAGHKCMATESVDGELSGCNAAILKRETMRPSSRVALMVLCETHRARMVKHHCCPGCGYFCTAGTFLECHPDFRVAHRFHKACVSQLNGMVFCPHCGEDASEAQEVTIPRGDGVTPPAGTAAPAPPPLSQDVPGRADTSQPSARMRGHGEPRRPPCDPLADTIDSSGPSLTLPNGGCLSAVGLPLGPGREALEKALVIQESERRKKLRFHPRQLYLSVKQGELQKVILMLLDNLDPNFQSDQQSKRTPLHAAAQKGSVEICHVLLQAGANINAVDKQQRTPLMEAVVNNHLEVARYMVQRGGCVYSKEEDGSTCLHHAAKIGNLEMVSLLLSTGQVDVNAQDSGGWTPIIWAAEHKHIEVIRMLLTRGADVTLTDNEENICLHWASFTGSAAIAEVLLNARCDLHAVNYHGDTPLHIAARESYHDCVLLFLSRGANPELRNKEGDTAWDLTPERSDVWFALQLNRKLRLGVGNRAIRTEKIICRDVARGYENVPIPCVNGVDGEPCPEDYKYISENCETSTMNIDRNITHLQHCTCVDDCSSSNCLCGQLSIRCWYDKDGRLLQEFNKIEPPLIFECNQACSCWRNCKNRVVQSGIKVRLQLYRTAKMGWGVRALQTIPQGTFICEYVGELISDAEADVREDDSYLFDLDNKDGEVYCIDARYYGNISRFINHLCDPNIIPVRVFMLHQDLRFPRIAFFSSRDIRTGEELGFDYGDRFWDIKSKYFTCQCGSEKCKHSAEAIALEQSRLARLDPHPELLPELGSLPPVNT
Protocol text: Inhibition of G9a (unknown origin) by AlphaLISA assay
Measured attribute: IC50 (nM)
State just the number; it will be interpreted in nM.

Task: Identify the reported IC50 for the following entry. C=CC(=O)N(C)c1nc(NC2CCN(C3CCCCC3)CC2)c2cc(OC)c(OCCCN3CCCC3)cc2n1
Output: 3.51

Task: Identify the reported IC50 for the following entry. COc1cc2c(NC3CCN(C)CC3)nc(CNC(=O)/C=C/CN(C)C)nc2cc1OCCCN1CCCC1
Output: 7.6

Task: Identify the reported IC50 for the following entry. CCC(=O)NCc1cc(NC2CCN(C)CC2)c2cc(OC)c(OCCCN3CCCC3)cc2n1
Output: 0.71

* * *

Assay system: UniProt:Q96KQ7
Protocol text: Inhibition of G9a (unknown origin) by AlphaLISA assay
Threshold 6 nM: IC50 strictly smaller gives condition met, otherwise condition not met.

Task: IC50 strictly < 6 nM for this compound? COc1cc2c(NC3CCN(C)CC3)nc(CNC(=O)CCl)nc2cc1OCCCN1CCCC1
Output: condition met

Task: IC50 strictly < 6 nM for this compound? C=C(C)C(=O)NCc1cc(NC2CCN(C)CC2)c2cc(OC)c(OCCCN3CCCC3)cc2n1
Output: condition met

Task: IC50 strictly < 6 nM for this compound? C/C=C/C(=O)NCc1cc(NC2CCN(C)CC2)c2cc(OC)c(OCCCN3CCCC3)cc2n1
Output: condition met

Task: IC50 strictly < 6 nM for this compound? C/C=C/C(=O)NCc1nc(NC2CCN(C)CC2)c2cc(OC)c(OCCCN3CCCC3)cc2n1
Output: condition not met

Task: IC50 strictly < 6 nM for this compound? CC#CC(=O)NCc1cc(NC2CCN(C)CC2)c2cc(OC)c(OCCCN3CCCC3)cc2n1
Output: condition met

Task: IC50 strictly < 6 nM for this compound? C=CC(=O)N(C)c1nc(NC2CCN(CCC)CC2)c2cc(OC)c(OCCCN3CCCC3)cc2n1
Output: condition met

Task: IC50 strictly < 6 nM for this compound? C=CC(=O)NCc1nc(NC2CCN(C)CC2)c2cc(OC)c(OCCCN3CCCC3)cc2n1
Output: condition not met

Task: IC50 strictly < 6 nM for this compound? C=CC(=O)N(C)c1nc(NC2CCN(C)CC2)c2cc(OC)c(OCCCN3CCCC3)cc2n1
Output: condition not met

Task: IC50 strictly < 6 nM for this compound? CC#CC(=O)NCc1nc(NC2CCN(C)CC2)c2cc(OC)c(OCCCN3CCCC3)cc2n1
Output: condition not met

Task: IC50 strictly < 6 nM for this compound? C=CC(=O)N(C)c1nc(NCC2CCN(C)CC2)c2cc(OC)c(OCCCN3CCCC3)cc2n1
Output: condition not met

Task: IC50 strictly < 6 nM for this compound? C=CC(=O)N(C)c1nc(NC2CCN(C(C)C)CC2)c2cc(OC)c(OCCCN3CCCC3)cc2n1
Output: condition met

Task: IC50 strictly < 6 nM for this compound? COc1cc2c(NC3CCN(C)CC3)cc(CNC(=O)CCl)nc2cc1OCCCN1CCCC1
Output: condition met

Task: IC50 strictly < 6 nM for this compound? C=CC(=O)NCc1cc(NC2CCN(C)CC2)c2cc(OC)c(OCCCN3CCCC3)cc2n1
Output: condition met

Task: IC50 strictly < 6 nM for this compound? COc1cc2c(NC3CCN(C)CC3)nc(CNC(=O)CC#N)nc2cc1OCCCN1CCCC1
Output: condition not met

Task: IC50 strictly < 6 nM for this compound? CCC(=O)N(C)c1nc(NC2CCN(C)CC2)c2cc(OC)c(OCCCN3CCCC3)cc2n1
Output: condition met

Task: IC50 strictly < 6 nM for this compound? CCC(=O)NCc1nc(NC2CCN(C)CC2)c2cc(OC)c(OCCCN3CCCC3)cc2n1
Output: condition not met

Task: IC50 strictly < 6 nM for this compound? COc1cc2c(NC3CCN(C)CC3)nc(CNC(=O)C3(C#N)CC3)nc2cc1OCCCN1CCCC1
Output: condition not met

Task: IC50 strictly < 6 nM for this compound? C=C(C)C(=O)NCc1nc(NC2CCN(C)CC2)c2cc(OC)c(OCCCN3CCCC3)cc2n1
Output: condition not met
